Molecular target: UMP kinase from B. subtilis (Bacillus subtilis)
Sequence (O31749 whole entry): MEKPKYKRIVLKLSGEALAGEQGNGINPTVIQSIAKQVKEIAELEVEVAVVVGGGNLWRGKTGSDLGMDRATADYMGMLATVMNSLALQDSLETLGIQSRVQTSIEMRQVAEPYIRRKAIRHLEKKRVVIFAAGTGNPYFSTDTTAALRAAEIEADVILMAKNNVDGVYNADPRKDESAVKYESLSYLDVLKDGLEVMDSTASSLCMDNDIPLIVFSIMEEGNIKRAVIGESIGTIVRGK
Experiment: UMP kinase activity, coupled spectrophotometric assay
Format: biochemical
Details: 2 mM ATP and 1 mM UTP; read-out: half maximum activation concentration
Description: Purification of UMP kinase and activity assays. E. coli overproducing the UMP kinase from B. subtilis was disrupted by sonication in 50 mM Tris-HCl (pH 7.4) and 2 mM UTP. […] The UMP kinase activity was determined at 30° C. using a coupled spectrophotometric assay (0.5 ml final volume) on an Eppendorf PCP6121 photometer [Blondin, 1994 #977]. […] The decrease in absorbance at 334 nm (between 0.03 and 0.3/min) was then recorded and corrected for secondary reactions, occurring in the absence of UMP. […]
Test Readout: pEC50
Scale note: pEC50 = -log10(concentration in M).

Per the records, this compound ( Nc1nc2c(ncn2[C@@H]2O[C@H](COP(=O)(O)OP(=O)(O)OP(=O)(O)O)[C@@H](O)[C@H]2O)c(=O)[nH]1 ) has pEC50 equal to 4.00

* * *

Test Readout: IC50 (µM)
Give your result in µM as a bare value.

Measured IC50 (UMP kinase from B. subtilis (Bacillus subtilis, UniProt O31749)), entry O=c1ccn([C@@H]2O[C@H](COP(=O)(O)OP(=O)(O)OP(=O)(O)O)[C@@H](O)[C@H]2O)c(=O)[nH]1 [UTP] : 50
